Cited source: paper PMC9144902

# TESTED ON: human serum albumin (HSA) (Homo sapiens, UniProt P02768)
# Construct: purchased
# Sequence (P02768 25-609): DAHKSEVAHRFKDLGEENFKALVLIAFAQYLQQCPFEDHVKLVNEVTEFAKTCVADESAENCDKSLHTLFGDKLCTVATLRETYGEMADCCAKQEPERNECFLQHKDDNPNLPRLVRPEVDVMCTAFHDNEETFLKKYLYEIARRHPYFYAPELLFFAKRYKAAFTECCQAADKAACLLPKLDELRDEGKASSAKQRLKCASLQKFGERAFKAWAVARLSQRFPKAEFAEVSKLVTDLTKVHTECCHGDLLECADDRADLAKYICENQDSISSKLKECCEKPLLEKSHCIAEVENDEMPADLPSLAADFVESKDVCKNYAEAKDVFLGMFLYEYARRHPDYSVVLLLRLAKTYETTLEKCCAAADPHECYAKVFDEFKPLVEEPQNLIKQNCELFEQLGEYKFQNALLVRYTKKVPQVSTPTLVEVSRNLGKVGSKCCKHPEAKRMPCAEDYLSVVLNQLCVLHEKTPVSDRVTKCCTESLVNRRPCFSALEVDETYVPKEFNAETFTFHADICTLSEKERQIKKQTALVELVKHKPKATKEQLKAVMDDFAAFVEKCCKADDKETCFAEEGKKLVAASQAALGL
# TEST DESCRIPTION: Albumin binding by tryptophan fluorescence emission quenching
# MEASUREMENT SETUP: λem,max = 351 nm, final value of titration (Figure S10)
READOUT TYPE: HSA fluorescence, % of the initial fluorescence intensity (I/Io) (%)
Response body: numeric value in %, unit text excluded.

{"COMPOUND": "CN1CCN(c2c(F)cc3c(=O)c(C(=O)[O-])cn(CCF)c3c2F)CC1.CN1CCN(c2c(F)cc3c(=O)c(C(=O)[O-])cn(CCF)c3c2F)CC1.CO.CO.[Ni+2] [complex 5, [Ni(flrx)2(MeOH)2]]", "VALUE": 34.1}

Then this compound:
Can you share its HSA fluorescence, % of the initial fluorescence intensity (I/Io)? I mean this compound: CN1CCN(c2c(F)cc3c(=O)c(C(=O)[O-])cn(CCF)c3c2F)CC1.CN1CCN(c2c(F)cc3c(=O)c(C(=O)[O-])cn(CCF)c3c2F)CC1.[Co+2].c1ccc(-c2ccccn2)nc1 [complex 15, [Co(flrx)2(bipy)]]
26.1

----------
Below, each entry is listed with its recorded kq(HSA), HSA-quenching constant.
# TESTED ON: human serum albumin (HSA) (Homo sapiens)
# Construct: purchased
# TEST DESCRIPTION: Albumin binding by tryptophan fluorescence emission quenching
# MEASUREMENT SETUP: HSA 3 μM, buffer pH 7.0, λexc 295 nm, Stern–Volmer, τ0 = 10^–8 s

{"COMPOUND": "CN1CCN(c2c(F)cc3c(=O)c(C(=O)[O-])cn(CCF)c3c2F)CC1.[Cl-].[Cu+2].c1cnc2c(c1)ccc1cccnc12 [complex 8, [Cu(flrx)(phen)Cl]]", "kq(HSA), HSA-quenching constant": "4.08(±0.13) × 10^12 M^−1s^−1"}
{"COMPOUND": "CN1CCN(c2c(F)cc3c(=O)c(C(=O)[O-])cn(CCF)c3c2F)CC1.CN1CCN(c2c(F)cc3c(=O)c(C(=O)[O-])cn(CCF)c3c2F)CC1.CO.CO.[Ni+2] [complex 5, [Ni(flrx)2(MeOH)2]]", "kq(HSA), HSA-quenching constant": "1.09(±0.03) × 10^13 M^−1s^−1"}
{"COMPOUND": "CN1CCN(c2c(F)cc3c(=O)c(C(=O)[O-])cn(CCF)c3c2F)CC1.CN1CCN(c2c(F)cc3c(=O)c(C(=O)[O-])cn(CCF)c3c2F)CC1.[Mn+2].c1cnc2c(c1)ccc1cccnc12 [complex 11, [Mn(flrx)2(phen)]]", "kq(HSA), HSA-quenching constant": "1.03(±0.01) × 10^13 M^−1s^−1"}
{"COMPOUND": "CN1CCN(c2c(F)cc3c(=O)c(C(=O)[O-])cn(CCF)c3c2F)CC1.CN1CCN(c2c(F)cc3c(=O)c(C(=O)[O-])cn(CCF)c3c2F)CC1.[Cu+2] [complex 1, [Cu(flrx)2]]", "kq(HSA), HSA-quenching constant": "1.09(±0.08) × 10^13 M^−1s^−1"}
{"COMPOUND": "CN1CCN(c2c(F)cc3c(=O)c(C(=O)[O-])cn(CCF)c3c2F)CC1.CN1CCN(c2c(F)cc3c(=O)c(C(=O)[O-])cn(CCF)c3c2F)CC1.[Mn+2].c1ccc(-c2ccccn2)nc1 [complex 9, [Mn(flrx)2(bipy)]]", "kq(HSA), HSA-quenching constant": "8.09(±0.17) × 10^12 M^−1s^−1"}

Here's the next entry for you.
So what kq(HSA), HSA-quenching constant did CN1CCN(c2c(F)cc3c(=O)c(C(=O)[O-])cn(CCF)c3c2F)CC1.CN1CCN(c2c(F)cc3c(=O)c(C(=O)[O-])cn(CCF)c3c2F)CC1.[Ni+2].c1ccc(Nc2ccccn2)nc1 [complex 18, [Ni(flrx)2(bipyam)]] get with human serum albumin (HSA) (Homo sapiens)?
6.94(±0.10) × 10^12 M^−1s^−1

----------
# TESTED ON: human serum albumin (HSA) (Homo sapiens, UniProt P02768)
# Construct: purchased
# TEST DESCRIPTION: Albumin binding by tryptophan fluorescence emission quenching
# MEASUREMENT SETUP: HSA 3 μM, buffer pH 7.0, λexc 295 nm, Stern–Volmer, τ0 = 10^–8 s
READOUT TYPE: kq(HSA), HSA-quenching constant

Give human serum albumin (HSA) (Homo sapiens, UniProt P02768) kq(HSA), HSA-quenching constant for CN1CCN(c2c(F)cc3c(=O)c(C(=O)[O-])cn(CCF)c3c2F)CC1.CN1CCN(c2c(F)cc3c(=O)c(C(=O)[O-])cn(CCF)c3c2F)CC1.[Mn+2].c1ccc(Nc2ccccn2)nc1 [complex 10, [Mn(flrx)2(bipyam)]]
8.01(±0.23) × 10^12 M^−1s^−1

----------
# System: CT DNA
# TEST DESCRIPTION: Study of the DNA-interaction by cyclic voltammetry
# Format: binding, calf
# MEASUREMENT SETUP: M(II)/M(I), 1:2 DMSO/buffer, absence of CT DNA
Property: Epc(f), cathodic potential; scope: individual molecules
Express it in mV; write the number only.

Here are 4 molecules together with their reported answers.
{"MOLECULE": "CN1CCN(c2c(F)cc3c(=O)c(C(=O)[O-])cn(CCF)c3c2F)CC1.CN1CCN(c2c(F)cc3c(=O)c(C(=O)[O-])cn(CCF)c3c2F)CC1.[Ni+2].c1cnc2c(c1)ccc1cccnc12 [complex 19, [Ni(flrx)2(phen)]]", "READOUT TYPE": "Epc(f), cathodic potential", "VALUE": "−706"}
{"MOLECULE": "CN1CCN(c2c(F)cc3c(=O)c(C(=O)[O-])cn(CCF)c3c2F)CC1.CN1CCN(c2c(F)cc3c(=O)c(C(=O)[O-])cn(CCF)c3c2F)CC1.[Co+2].c1cnc2c(c1)ccc1cccnc12 [complex 17, [Co(flrx)2(phen)]]", "READOUT TYPE": "Epc(f), cathodic potential", "VALUE": "−695"}
{"MOLECULE": "CN1CCN(c2c(F)cc3c(=O)c(C(=O)[O-])cn(CCF)c3c2F)CC1.CN1CCN(c2c(F)cc3c(=O)c(C(=O)[O-])cn(CCF)c3c2F)CC1.CO.CO.[Co+2] [complex 4, [Co(flrx)2(MeOH)2]]", "READOUT TYPE": "Epc(f), cathodic potential", "VALUE": "−724"}
{"MOLECULE": "CN1CCN(c2c(F)cc3c(=O)c(C(=O)[O-])cn(CCF)c3c2F)CC1.CN1CCN(c2c(F)cc3c(=O)c(C(=O)[O-])cn(CCF)c3c2F)CC1.[Cu+2] [complex 1, [Cu(flrx)2]]", "READOUT TYPE": "Epc(f), cathodic potential", "VALUE": "−725"}

For the next question, use this molecule.
I am curious: what Epc(f), cathodic potential value has been reported for CN1CCN(c2c(F)cc3c(=O)c(C(=O)[O-])cn(CCF)c3c2F)CC1.CN1CCN(c2c(F)cc3c(=O)c(C(=O)[O-])cn(CCF)c3c2F)CC1.CO.CO.[Ni+2] [complex 5, [Ni(flrx)2(MeOH)2]] ?
−706

----------
Documented K(HSA), HSA-binding constant across a set of molecules
# TESTED ON: human serum albumin (HSA) (Homo sapiens)
# Construct: purchased
# TEST DESCRIPTION: Albumin binding by tryptophan fluorescence emission quenching
# MEASUREMENT SETUP: HSA 3 μM, buffer pH 7.0, Scatchard equation

For CN1CCN(c2c(F)cc3c(=O)c(C(=O)[O-])cn(CCF)c3c2F)CC1.CN1CCN(c2c(F)cc3c(=O)c(C(=O)[O-])cn(CCF)c3c2F)CC1.[Mn+2].c1ccc(-c2ccccn2)nc1 [complex 9, [Mn(flrx)2(bipy)]] , what is its reported K(HSA), HSA-binding constant?
6.36(±0.31) × 10^4 M^−1

----------
# TESTED ON: bovine serum albumin (BSA) (Bos taurus)
# Construct: purchased
# Sequence (P02769 25-607): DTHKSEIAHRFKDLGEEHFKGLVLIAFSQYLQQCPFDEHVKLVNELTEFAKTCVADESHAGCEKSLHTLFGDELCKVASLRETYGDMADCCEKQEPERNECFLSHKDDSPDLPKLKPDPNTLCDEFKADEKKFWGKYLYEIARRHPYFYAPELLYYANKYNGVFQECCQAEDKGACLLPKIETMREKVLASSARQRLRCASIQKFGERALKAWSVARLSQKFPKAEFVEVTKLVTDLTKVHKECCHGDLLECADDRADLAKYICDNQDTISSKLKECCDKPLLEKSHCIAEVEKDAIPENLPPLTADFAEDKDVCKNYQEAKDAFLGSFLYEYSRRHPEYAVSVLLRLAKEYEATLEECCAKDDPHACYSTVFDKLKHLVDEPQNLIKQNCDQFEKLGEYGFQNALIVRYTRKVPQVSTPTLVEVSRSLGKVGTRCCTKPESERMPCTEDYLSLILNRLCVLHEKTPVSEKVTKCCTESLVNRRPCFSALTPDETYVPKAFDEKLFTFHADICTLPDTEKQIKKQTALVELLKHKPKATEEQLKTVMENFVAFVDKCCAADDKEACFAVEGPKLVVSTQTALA
# TEST DESCRIPTION: Albumin binding by tryptophan fluorescence emission quenching
# MEASUREMENT SETUP: BSA 3 μM, buffer pH 7.0, Scatchard equation
// reported K(BSA), BSA-binding constant per item

Take a look at these entries with their results.
{"COMPOUND": "CN1CCN(c2c(F)cc3c(=O)c(C(=O)[O-])cn(CCF)c3c2F)CC1.CN1CCN(c2c(F)cc3c(=O)c(C(=O)[O-])cn(CCF)c3c2F)CC1.[Mn+2].c1ccc(Nc2ccccn2)nc1 [complex 10, [Mn(flrx)2(bipyam)]]", "READOUT TYPE": "K(BSA), BSA-binding constant", "VALUE": "6.46(±0.39) × 10^4 M^−1"}
{"COMPOUND": "CN1CCN(c2c(F)cc3c(=O)c(C(=O)[O-])cn(CCF)c3c2F)CC1.CN1CCN(c2c(F)cc3c(=O)c(C(=O)[O-])cn(CCF)c3c2F)CC1.[Cu+2] [complex 1, [Cu(flrx)2]]", "READOUT TYPE": "K(BSA), BSA-binding constant", "VALUE": "7.19(±0.21) × 10^4 M^−1"}

Now, please, on to the next compound.
May I ask what K(BSA), BSA-binding constant has been recorded for CN1CCN(c2c(F)cc3c(=O)c(C(=O)[O-])cn(CCF)c3c2F)CC1.CN1CCN(c2c(F)cc3c(=O)c(C(=O)[O-])cn(CCF)c3c2F)CC1.[Co+2].c1cnc2c(c1)ccc1cccnc12 [complex 17, [Co(flrx)2(phen)]] ?
1.44(±0.03) × 10^5 M^−1
